protocolDetails: Solubility of P027 in different solvents at room temperature (visual, successive solvent additions)
Type: physicochemical
assayContext: organic solvent or mixture, thermodynamic from solid; Methyl acetate, room temperature

- sampleSmiles: "Cc1cc(OCCN2CCOCC2)nn1-c1ccc2ccccc2c1.Cl"
  solubility: "< 1200 µg/mL"

====

protocolDetails: Solubility of P027 in different solvents at room temperature (visual, successive solvent additions)
Type: physicochemical
assayContext: organic solvent or mixture, thermodynamic from solid; Chlorobenzene, room temperature

- molecule: "Cc1cc(OCCN2CCOCC2)nn1-c1ccc2ccccc2c1.Cl [P027]"
  solubility: "< 1200 µg/mL"

====

protocolDetails: Solubility of P027 in different solvents at room temperature (visual, successive solvent additions)
Format: physicochemical
assayContext: organic solvent or mixture, thermodynamic from solid; Dimethoxymethane, room temperature
outcomeMeasure: solubility

- sampleSmiles: "Cc1cc(OCCN2CCOCC2)nn1-c1ccc2ccccc2c1.Cl"
  result: "< 1200 µg/mL"

====

protocolDetails: Solubility of P027 in different solvents at room temperature (visual, successive solvent additions)
Format: physicochemical
assayContext: organic solvent or mixture, thermodynamic from solid; 2-Butanol; solid was dissolved at 60° C., left at room temperature, no solid observed

- sampleSmiles: "Cc1cc(OCCN2CCOCC2)nn1-c1ccc2ccccc2c1.Cl"
  solubility: "3000 to 4000 µg/mL"

====

protocolDetails: Solubility of P027 in different solvents at room temperature (visual, successive solvent additions)
Type: physicochemical
assayContext: organic solvent or mixture, thermodynamic from solid; 1,2-Dichloroethane, room temperature
outcomeMeasure: solubility

- sampleSmiles: "Cc1cc(OCCN2CCOCC2)nn1-c1ccc2ccccc2c1.Cl"
  result: "15 to 25 mg/mL"

====

protocolDetails: Solubility of P027 in different solvents at room temperature (visual, successive solvent additions)
Format: physicochemical
assayContext: organic solvent or mixture, thermodynamic from solid; Dichloromethane, room temperature

- compound: "Cc1cc(OCCN2CCOCC2)nn1-c1ccc2ccccc2c1.Cl [P027]"
  solubility: "> 50 mg/mL"

====

protocolDetails: Solubility of P027 in different solvents at room temperature (visual, successive solvent additions)
Assay type: physicochemical
assayContext: organic solvent or mixture, thermodynamic from solid; Methyl isobutyl ketone, room temperature
outcomeMeasure: solubility

- sampleSmiles: "Cc1cc(OCCN2CCOCC2)nn1-c1ccc2ccccc2c1.Cl"
  result: "< 1200 µg/mL"

====

protocolDetails: Solubility of P027 in different solvents at room temperature (visual, successive solvent additions)
Assay type: physicochemical
assayContext: organic solvent or mixture, thermodynamic from solid; Ethanol, room temperature

- compound: "Cc1cc(OCCN2CCOCC2)nn1-c1ccc2ccccc2c1.Cl [P027]"
  solubility: "15 to 25 mg/mL"

====

protocolDetails: Solubility of P027 in different solvents at room temperature (visual, successive solvent additions)
Format: physicochemical
assayContext: organic solvent or mixture, thermodynamic from solid; n-Butanol; solid was dissolved at 60° C., left at room temperature, no solid observed
outcomeMeasure: solubility

- compound: "Cc1cc(OCCN2CCOCC2)nn1-c1ccc2ccccc2c1.Cl [P027]"
  result: "5000 to 10000 µg/mL"

====

protocolDetails: Solubility of P027 in different solvents at room temperature (visual, successive solvent additions)
Format: physicochemical
assayContext: organic solvent or mixture, thermodynamic from solid; Chloroform, room temperature

- sampleSmiles: "Cc1cc(OCCN2CCOCC2)nn1-c1ccc2ccccc2c1.Cl"
  solubility: "> 50 mg/mL"

====

protocolDetails: Solubility of P027 in different solvents at room temperature (visual, successive solvent additions)
Assay type: physicochemical
assayContext: organic solvent or mixture, thermodynamic from solid; Dimethylsulfoxide, room temperature
outcomeMeasure: solubility

- sampleSmiles: "Cc1cc(OCCN2CCOCC2)nn1-c1ccc2ccccc2c1.Cl"
  result: "> 50 mg/mL"

====

protocolDetails: Solubility of P027 in different solvents at room temperature (visual, successive solvent additions)
Type: physicochemical
assayContext: organic solvent or mixture, thermodynamic from solid; Methanol, room temperature

- sampleSmiles: "Cc1cc(OCCN2CCOCC2)nn1-c1ccc2ccccc2c1.Cl"
  solubility: "> 50 mg/mL"

====

protocolDetails: Solubility of P027 in different solvents at room temperature (visual, successive solvent additions)
Assay type: physicochemical
assayContext: organic solvent or mixture, thermodynamic from solid; Cyclohexane, room temperature
outcomeMeasure: solubility

- compound: "Cc1cc(OCCN2CCOCC2)nn1-c1ccc2ccccc2c1.Cl [P027]"
  outcomeMeasure: "solubility"
  result: "< 1.2 mg/mL"

====

protocolDetails: Solubility of P027 in different solvents at room temperature (visual, successive solvent additions)
Assay type: physicochemical
assayContext: organic solvent or mixture, thermodynamic from solid; Nitromethane, room temperature

- compound: "Cc1cc(OCCN2CCOCC2)nn1-c1ccc2ccccc2c1.Cl [P027]"
  solubility: "25 to 50 mg/mL"

====

protocolDetails: Solubility of P027 in different solvents at room temperature (visual, successive solvent additions)
Type: physicochemical
assayContext: organic solvent or mixture, thermodynamic from solid; Ethyl acetate, room temperature

- compound: "Cc1cc(OCCN2CCOCC2)nn1-c1ccc2ccccc2c1.Cl [P027]"
  solubility: "< 1200 µg/mL"

====

protocolDetails: Solubility of P027 in different solvents at room temperature (visual, successive solvent additions)
Format: physicochemical
assayContext: organic solvent or mixture, thermodynamic from solid; Dimethylcarbonate; solid was dissolved at 80° C., left at room temperature, no solid observed

- sampleSmiles: "Cc1cc(OCCN2CCOCC2)nn1-c1ccc2ccccc2c1.Cl"
  solubility: "1000 to 2000 µg/mL"

====

protocolDetails: Solubility of P027 in different solvents at room temperature (visual, successive solvent additions)
Type: physicochemical
assayContext: organic solvent or mixture, thermodynamic from solid; 3-Pentanone; solid was dissolved at 80° C., left at room temperature, no solid observed

- molecule: "Cc1cc(OCCN2CCOCC2)nn1-c1ccc2ccccc2c1.Cl [P027]"
  solubility: "1000 to 2000 µg/mL"

====

protocolDetails: Solubility of P027 in different solvents at room temperature (visual, successive solvent additions)
Assay type: physicochemical
assayContext: thermodynamic from solid; Water, room temperature

- compound: "Cc1cc(OCCN2CCOCC2)nn1-c1ccc2ccccc2c1.Cl [P027]"
  solubility: "> 50 mg/mL"

====

protocolDetails: Solubility of P027 in different solvents at room temperature (visual, successive solvent additions)
Type: physicochemical
assayContext: organic solvent or mixture, thermodynamic from solid; Acetone, room temperature
outcomeMeasure: solubility

- molecule: "Cc1cc(OCCN2CCOCC2)nn1-c1ccc2ccccc2c1.Cl [P027]"
  result: "4 to 5 mg/mL"

====

protocolDetails: Solubility of P027 in different solvents at room temperature (visual, successive solvent additions)
Type: physicochemical
assayContext: organic solvent or mixture, thermodynamic from solid; Propyl acetate, room temperature
outcomeMeasure: solubility

- compound: "Cc1cc(OCCN2CCOCC2)nn1-c1ccc2ccccc2c1.Cl [P027]"
  result: "< 1200 µg/mL"

====

protocolDetails: Solubility of P027 in different solvents at room temperature (visual, successive solvent additions)
Type: physicochemical
assayContext: organic solvent or mixture, thermodynamic from solid; Methyl tert-butyl ether, room temperature

- sampleSmiles: "Cc1cc(OCCN2CCOCC2)nn1-c1ccc2ccccc2c1.Cl"
  solubility: "< 1200 µg/mL"

====

protocolDetails: Solubility of P027 in different solvents at room temperature (visual, successive solvent additions)
Format: physicochemical
assayContext: organic solvent or mixture, thermodynamic from solid; Diisopropyl ether, room temperature

- sampleSmiles: "Cc1cc(OCCN2CCOCC2)nn1-c1ccc2ccccc2c1.Cl"
  solubility: "< 1200 µg/mL"

====

protocolDetails: Solubility of P027 in different solvents at room temperature (visual, successive solvent additions)
Format: physicochemical
assayContext: organic solvent or mixture, thermodynamic from solid; Isobutyl acetate, room temperature
outcomeMeasure: solubility

- sampleSmiles: "Cc1cc(OCCN2CCOCC2)nn1-c1ccc2ccccc2c1.Cl"
  result: "< 1200 µg/mL"

====

protocolDetails: Solubility of P027 in different solvents at room temperature (visual, successive solvent additions)
Type: physicochemical
assayContext: organic solvent or mixture, thermodynamic from solid; Toluene, room temperature

- compound: "Cc1cc(OCCN2CCOCC2)nn1-c1ccc2ccccc2c1.Cl [P027]"
  solubility: "< 1200 µg/mL"

====

protocolDetails: Solubility of P027 in different solvents at room temperature (visual, successive solvent additions)
Format: physicochemical
assayContext: organic solvent or mixture, thermodynamic from solid; Pyridine, room temperature

- compound: "Cc1cc(OCCN2CCOCC2)nn1-c1ccc2ccccc2c1.Cl [P027]"
  solubility: "25 to 50 mg/mL"

====

protocolDetails: Solubility of P027 in different solvents at room temperature (visual, successive solvent additions)
Format: physicochemical
assayContext: organic solvent or mixture, thermodynamic from solid; Xylene, room temperature

- compound: "Cc1cc(OCCN2CCOCC2)nn1-c1ccc2ccccc2c1.Cl [P027]"
  solubility: "< 1200 µg/mL"

====

protocolDetails: Solubility of P027 in different solvents at room temperature (visual, successive solvent additions)
Assay type: physicochemical
assayContext: organic solvent or mixture, thermodynamic from solid; Isopropyl acetate, room temperature
Description: In order to plan the crystallization screening, […] table 6 using the following methodology (table 7): […] solvent and successive additions (initially 0.2 mL and finally 0.5 mL) of solvent until the solid was completely dissolved or up to a maximum of 8 mL were performed. After each solvent addition the suspension was vigorously stirred for 10-15 minutes and visually inspected to determine if the solid was completely dissolved.

- compound: "Cc1cc(OCCN2CCOCC2)nn1-c1ccc2ccccc2c1.Cl [P027]"
  solubility: "< 1200 µg/mL"
